- Test system: K. pneumoniae UMM producing SHV-5 and KPC-2
Reported values of MIC for individual entries

Below: 5 compounds and their reported MIC.
CCN1CCN(C(=O)N[C@@H](C(=O)N[C@H]2Cc3cccc(C(=O)O)c3OB2O)c2ccc(C(=O)O)c(F)c2Cl)C(=O)C1=O (single isomer, unassigned) : 32 to 64 µg/mL
N=C(N)NCCN1CCN(C(=O)NC(C(=O)N[C@H]2Cc3ccc(F)c(C(=O)O)c3OB2O)c2ccc(C(=O)O)c(F)c2)C(=O)C1=O (stereo partly drawn) : > 128 µg/mL
NCCN1CCN(C(=O)N[C@@H](C(=O)N[C@H]2Cc3cccc(C(=O)O)c3OB2O)c2ccc(C(=O)O)cc2)C(=O)C1=O (single isomer, unassigned) : 8 to 16 µg/mL
NCCN1CCN(C(=O)NC(C(=O)N[C@H]2Cc3cccc(C(=O)O)c3OB2O)c2cc(F)c(O)cc2F)C(=O)C1=O (stereo partly drawn) : 8 to 16 µg/mL
CCN1CCN(C(=O)N[C@H](C(=O)N[C@H]2Cc3cccc(C(=O)O)c3OB2O)c2ccc(C(=O)O)cc2)C(=O)C1=O (single isomer, unassigned) : > 128 µg/mL

## Input Entry CCN1CCN(C(=O)NC(C(=O)N[C@H]2Cc3ccc(F)c(C(=O)O)c3OB2O)c2c(F)cc(O)cc2F)C(=O)C1=O (stereo partly drawn) has what MIC?
## Output 8 to 16 µg/mL

----------
- Target or system: E. coli K12 PBP3 (Escherichia coli, UniProt P0AD68)
- Sequence (P0AD68 1-577): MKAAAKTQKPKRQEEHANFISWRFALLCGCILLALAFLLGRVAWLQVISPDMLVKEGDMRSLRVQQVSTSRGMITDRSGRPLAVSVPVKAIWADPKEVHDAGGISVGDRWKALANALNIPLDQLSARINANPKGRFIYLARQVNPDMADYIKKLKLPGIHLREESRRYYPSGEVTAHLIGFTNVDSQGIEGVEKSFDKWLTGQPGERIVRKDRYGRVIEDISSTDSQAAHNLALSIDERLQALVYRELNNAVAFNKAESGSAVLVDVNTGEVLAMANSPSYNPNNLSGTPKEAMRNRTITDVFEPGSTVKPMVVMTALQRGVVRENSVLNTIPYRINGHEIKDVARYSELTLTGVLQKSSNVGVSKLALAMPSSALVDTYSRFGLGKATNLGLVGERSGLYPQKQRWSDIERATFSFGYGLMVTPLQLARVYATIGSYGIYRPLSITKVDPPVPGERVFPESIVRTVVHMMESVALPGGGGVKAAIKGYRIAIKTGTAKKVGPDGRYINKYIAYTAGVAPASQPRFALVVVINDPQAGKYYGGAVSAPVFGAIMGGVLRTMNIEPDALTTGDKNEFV
- Protocol text: biochemical
Measurement name: EC50

NC1(CN2CCN(C(=O)N[C@H](C(=O)N[C@H]3Cc4cccc(C(=O)O)c4OB3O)c3c(F)cc(O)cc3F)C(=O)C2=O)CC1 (single isomer, unassigned) : < 30 µM
NCCN1CCN(C(=O)N[C@H](C(=O)N[C@H]2Cc3cccc(C(=O)O)c3OB2O)c2c(F)cccc2F)C(=O)C1=O (single isomer, unassigned) : > 500 µM
CCN1CCN(C(=O)NC(C(=O)N[C@H]2Cc3ccc(F)c(C(=O)O)c3OB2O)c2c(F)cc(O)cc2F)C(=O)C1=O (stereo partly drawn) : < 30 µM

## Input Entry NCCN1CCN(C(=O)N[C@H](C(=O)N[C@H]2Cc3cccc(C(=O)O)c3OB2O)c2cc(F)c(O)c(F)c2F)C(=O)C1=O (single isomer, unassigned) has what EC50?
## Output 30 to 500 µM

## Input Entry CCN1CCN(C(=O)NC(C(=O)N[C@H]2Cc3ccc(F)c(C(=O)O)c3OB2O)c2nc(N)sc2F)C(=O)C1=O (stereo partly drawn) has what EC50?
## Output < 30 µM

## Input Entry CCN1CCN(C(=O)NC(C(=O)N[C@H]2Cc3cccc(C(=O)O)c3OB2O)c2cc(F)c(O)c(F)c2F)C(=O)C1=O (stereo partly drawn) has what EC50?
## Output < 30 µM

----------
- Test system: K. pneumoniae SI-117 producing VIM-1
Measurement name: MIC

Below: 5 compounds and their reported MIC.
CCN1CCN(C(=O)N[C@H](C(=O)N[C@H]2Cc3cccc(C(=O)O)c3OB2O)c2cc(O)cc(O)c2)C(=O)C1=O (single isomer, unassigned) : > 128 mg/L
C[C@H]1CN(CCN)C(=O)C(=O)N1C(=O)NC(C(=O)N[C@H]1Cc2cccc(C(=O)O)c2OB1O)c1c(F)cc(O)cc1F (stereo partly drawn) : 2 to 4 mg/L
CCN1CCN(C(=O)N[C@@H](C(=O)N[C@H]2Cc3cccc(C(=O)O)c3OB2O)c2ccc(C(=O)O)c(F)c2)C(=O)C1=O (single isomer, unassigned) : > 128 mg/L
CCN1CCN(C(=O)NC(C(=O)N[C@H]2Cc3ccc(O[C@@H]4CN[C@H](C(=O)N(C)C)C4)c(C(=O)O)c3OB2O)c2ccccc2)C(=O)C1=O (stereo partly drawn) : > 128 mg/L
NS(=O)(=O)c1cccc(C(NC(=O)N2CCN(CCF)C(=O)C2=O)C(=O)N[C@H]2Cc3cccc(C(=O)O)c3OB2O)c1 (stereo partly drawn) : 32 to 64 mg/L

## Input Entry CCN1CCN(C(=O)N[C@H](C(=O)N[C@H]2Cc3cccc(C(=O)O)c3OB2O)c2ccc(C(=O)O)cc2Cl)C(=O)C1=O (single isomer, unassigned) has what MIC?
## Output > 128 mg/L

----------
- Tested on: N. gonorrhoeae WHO L
- Protocol text: Liquid broth MIC in Fastidious broth
- Format: cell-based
- Experimental parameters: Neisseria gonorrhoeae; N. gonorrhoeae strain WHO L; Fastidious broth; read-out: Minimum Inhibitory Concentration, N. gonorrhoeae WHO L
Measurement name: MIC

Below: 3 compounds and their reported MIC.
NCCN1CCN(C(=O)N[C@@H](C(=O)N[C@H]2Cc3ccc(F)c(C(=O)O)c3OB2O)c2c(F)cc(O)c(O)c2F)C(=O)C1=O (single isomer, unassigned) : > 64 µg/mL
NCCN1CCN(C(=O)N[C@H](C(=O)N[C@H]2Cc3cccc(C(=O)O)c3OB2O)c2cc(F)c(O)c(F)c2)C(=O)C1=O (single isomer, unassigned) : > 64 µg/mL
CCN1CCN(C(=O)NC(C(=O)N[C@H]2Cc3cccc(C(=O)O)c3OB2O)c2ccc(O)c(NC(=O)c3ccc(O)c(O)c3Cl)c2)C(=O)C1=O (some centres unmarked) : > 64 µg/mL

Shifting focus to the compound that follows.
## Input Entry NCCCN1CCN(C(=O)NC(C(=O)N[C@H]2Cc3cccc(C(=O)O)c3OB2O)c2c(F)cc(O)cc2F)C(=O)C1=O (some centres unmarked) has what MIC?
## Output > 64 µg/mL

----------
- Tested on: N. gonorrhoeae WHO K
- Protocol text: Liquid broth MIC in Fastidious broth
- Assay type: cell-based
- Experimental parameters: Neisseria gonorrhoeae, read-out: Minimum Inhibitory Concentration, N. gonorrhoeae WHO K
Measurement name: MIC

Below: 5 compounds and their reported MIC.
NCCN1CCN(C(=O)NC(C(=O)N[C@H]2Cc3cccc(C(=O)O)c3OB2O)c2ccc(C(=O)O)c(Cl)c2)C(=O)C1=O (stereo partly drawn) : 16 to 32 µg/mL
CCN1CCN(C(=O)N[C@H](C(=O)N[C@H]2Cc3cccc(C(=O)O)c3OB2O)c2cc(F)c(C(=O)O)cc2Cl)C(=O)C1=O (single isomer, unassigned) : > 64 µg/mL
O=C(NC(C(=O)N[C@H]1Cc2ccc(F)c(C(=O)O)c2OB1O)c1ncc(O)cc1F)c1ccc(O)c(O)c1Cl (stereo partly drawn) : > 64 µg/mL
CCN1CCN(C(=O)NC(C(=O)N[C@H]2Cc3cccc(C(=O)O)c3OB2O)c2c(F)cc(N)cc2F)C(=O)C1=O (stereo partly drawn) : 16 to 32 µg/mL
CCN1CCN(C(=O)NC(C(=O)N[C@H]2Cc3cccc(C(=O)O)c3OB2O)c2cc([N+](=O)[O-])c(O)cc2F)C(=O)C1=O (stereo partly drawn) : 16 to 32 µg/mL

## Input Provide the documented MIC with N. gonorrhoeae WHO K as the system for CCN1CCN(C(=O)NC(C(=O)N[C@H]2Cc3cccc(C(=O)O)c3OB2O)c2c(F)cc(C(=O)O)cc2F)C(=O)C1=O (stereo partly drawn)
## Output 4 to 8 µg/mL

## Input Provide the documented MIC with N. gonorrhoeae WHO K as the system for NCCN1CCN(C(=O)N[C@H](C(=O)N[C@H]2Cc3cccc(C(=O)O)c3OB2O)c2c(F)cc(O)cc2F)C(=O)C1=O (single isomer, unassigned)
## Output > 64 µg/mL

## Input Provide the documented MIC with N. gonorrhoeae WHO K as the system for O=C(Nc1ccc(O)c(O)c1Cl)NC(C(=O)N[C@H]1Cc2ccc(F)c(C(=O)O)c2OB1O)c1ncc(O)cc1F (stereo partly drawn)
## Output > 64 µg/mL

## Input Provide the documented MIC with N. gonorrhoeae WHO K as the system for NCCN1CCN(C(=O)N[C@@H](C(=O)N[C@H]2Cc3cccc(C(=O)O)c3OB2O)c2c(O)cc(O)cc2F)C(=O)C1=O (single isomer, unassigned)
## Output > 64 µg/mL

## Input Provide the documented MIC with N. gonorrhoeae WHO K as the system for O=C(NCCN1CCN(C(=O)NC(C(=O)N[C@H]2Cc3ccc(F)c(C(=O)O)c3OB2O)c2ncc(O)cc2F)C(=O)C1=O)c1c(F)cc(O)c(O)c1Cl (stereo partly drawn)
## Output > 64 µg/mL

## Input Provide the documented MIC with N. gonorrhoeae WHO K as the system for CCN1CCN(C(=O)NC(C(=O)N[C@H]2Cc3cccc(C(=O)O)c3OB2O)c2cccc(NS(C)(=O)=O)c2)C(=O)C1=O (stereo partly drawn)
## Output > 64 µg/mL

## Input Provide the documented MIC with N. gonorrhoeae WHO K as the system for CCN1CCN(C(=O)NC(C(=O)N[C@H]2Cc3cccc(C(=O)O)c3OB2O)c2cc(F)c(O)cc2F)C(=O)C1=O (stereo partly drawn)
## Output 16 to 32 µg/mL
